# assay-target: Trop-2 (recombinant, His-tagged) (UniProt P09758 27-274)
# Sequence (P09758 27-274): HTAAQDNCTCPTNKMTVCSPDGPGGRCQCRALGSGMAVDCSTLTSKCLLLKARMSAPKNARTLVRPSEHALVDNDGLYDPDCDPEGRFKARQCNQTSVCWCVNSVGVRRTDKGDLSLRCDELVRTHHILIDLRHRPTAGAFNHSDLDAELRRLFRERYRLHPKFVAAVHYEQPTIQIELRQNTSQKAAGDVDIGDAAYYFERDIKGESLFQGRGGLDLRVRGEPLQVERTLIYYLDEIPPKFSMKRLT
# experimental-protocol: SPR
readout-kind: pKd
// pKd here means minus log10 of the molar concentration (mol/L)

Briefly, pKd measured for TRPFL (structured_DNA) DNA: CTACGGTGCCTTGAAGTGACTCGTTCCGTCCCTGGCCGCTCCTACTATCGATGTGTCATAGCAGGTCACTTCCAGG : 6.96
